Value source: patent US6399629B1

# Test system: Pseudomonas aeruginosa PAM1001
# measurementProtocol: microbe, parasite or virus in culture
# Assay type: cell-based
# assayConditions: Pseudomonas aeruginosa, PAM1001, read-out: Inhibition (%) of growth of P. aeruginosa PAM1001
# Procedure: For compounds labeled with the prefix ‘D’, potentiation is measured by inhibition of growth of Pseudomonas aeruginosa PAM1001 at varying concentrations of efflux pump inhibitors (EPIs) in the presence of levofloxacin (0.25 microg/mL). […] Kinetics of bacterial growth is monitored, during 18 h of incubation at 37° C., by measurement of the culture absorbance at 650 nm using a 96-well plate spectrophotometer (SpectraMax, Molecular Devices). […]
Counter-ions that a name gives are not always drawn.
propertyName: inhibition at 20 µg/mL (%)
Give bare numbers, in %.

For every listed record, write down its inhibition at 20 µg/mL.
1. NC[C@H](O)C(=O)N[C@H]1CN[C@H](C(=O)Nc2ccc(Oc3ccccc3)cc2)C1 [Compound D321, Dihydrochloride]
2. NCC(=O)N[C@@H]1CN[C@@H](C(=O)N2CCN(Cc3ccccc3)C[C@H]2CCc2ccccc2)C1 [Compound D409, Trihydrochloride]
3. Cc1cc(NC(=O)[C@@H](CCc2ccccc2)NC(=O)[C@@H]2C[C@@H](NC(=O)CN)CN2)ccc1Cl [Compound D206, Dihydrochloride]

A)
1: 100; 2: 100; 3: 99

For every listed record, write down its inhibition at 20 µg/mL.
1. NCC(=O)N[C@@H]1CN[C@H](C(=O)N2C[C@H](NC(=O)[C@H](O)CCc3ccccc3)C[C@H]2C(=O)Nc2cnc3ccccc3c2)C1 (mixture of isomers) [Compound D104, Trihydrochloride]
2. NCCC[C@@H](N)C(=O)N1C[C@@H](NC(=O)CCCc2ccccc2)C[C@H]1C(=O)Nc1ccc2c(c1)CCC2 [Compound D124, Dihydrochloride]
3. CC(C)(C)c1ccc(NC(=O)[C@@H]2C[C@@H](NC(=O)CN)CN2)cc1 [Compound D313, Dihydrochloride]
4. NCC(=O)N[C@H]1CN[C@H](C(=O)N[C@H](CCc2ccccc2)C(=O)Nc2ccc3c(c2)CCC3)C1 [Compound D203, Dihydrochloride]

A)
[62, 100, 99, 100]

For every listed record, write down its inhibition at 20 µg/mL.
1. NCC(=O)N[C@H]1CN[C@H](COc2cccc(-c3ccccc3)c2)C1 [Compound D502, Dihydrochloride]
2. NCC(=O)N[C@H]1CN[C@H](C(=O)NCC(=O)Nc2ccc(Cc3ccccc3)cc2)C1 [Compound D210, Dihydrochloride]
3. NC[C@H]1CN[C@H](C(=O)N2C[C@H](NC(=O)[C@H](O)CCc3ccccc3)C[C@H]2C(=O)Nc2cnc3ccccc3c2)C1 (mixture of isomers) [Compound D109, Trihydrochloride]

A)
[100, 99, 100]

---

# Tested on: Pseudomonas aeruginosa PAM1001
# measurementProtocol: microbe, parasite or virus in culture
# Type: cell-based
# assayConditions: Pseudomonas aeruginosa, PAM1001, read-out: Inhibition (%) of growth of P. aeruginosa PAM1001
Counter-ions that a name gives are not always drawn.
propertyName: inhibition at 10 µg/mL (%)
Numbers only, in %.

Study these solved cases before continuing.
In [3]: df
Out[3]:
                                   compound                    targetsystem  result
0  NCC(=O)N[C@H]1CN[C@H](C(=O)NCC(=O)Nc2ccc(Cc3ccccc3)cc2)C1 [Compound D210, Dihydrochloride]  Pseudomonas aeruginosa PAM1001      12
1  NCC(=O)N[C@H]1CN[C@H](C(=O)Nc2ccc(Oc3ccccc3)cc2)C1 [Compound D301, Dihydrochloride]  Pseudomonas aeruginosa PAM1001      81
2  N[C@H]1CCN[C@H](C(=O)Nc2ccc(Oc3ccccc3)cc2)C1 [Compound D329, Dihydrochloride]  Pseudomonas aeruginosa PAM1001      17
3  NCC(=O)N[C@H]1CN[C@H](C(=O)Nc2ccc(SCc3ccccc3)cc2)C1 [Compound D320, Dihydrochloride]  Pseudomonas aeruginosa PAM1001      97

Consider now this further compound.
Q) Any idea what its inhibition at 10 µg/mL is? The compound is NCC(=O)N[C@H]1CN[C@H](C(=O)N[C@H](CCc2ccccc2)C(=O)Nc2ccc3c(c2)CCC3)C1 [Compound D203, Dihydrochloride]
A) 100

---

# Test system: Pseudomonas aeruginosa PAM1001
# measurementProtocol: microbe, parasite or virus in culture
# Type: cell-based
# assayConditions: Concentration of Compound 5 μg/mL; Levofloxacin 0.25 μg/mL
# Protocol: For compounds labeled with the prefix ‘D’, potentiation is measured by inhibition of growth of Pseudomonas aeruginosa PAM1001 at varying concentrations of efflux pump inhibitors (EPIs) in the presence of levofloxacin (0.25 microg/mL). […] Kinetics of bacterial growth is monitored, during 18 h of incubation at 37° C., by measurement of the culture absorbance at 650 nm using a 96-well plate spectrophotometer (SpectraMax, Molecular Devices). […]
Hi there, I'd appreciate the recorded Inhibition (%) of growth of P. aeruginosa PAM1001 for every entry that follows.
Answers are plain numbers, in %.

In [3]: df
Out[3]:
                                   molecule  resultunits  result
0  Cl.Cl.NCC(=O)N[C@H]1CN[C@H](C(=O)NCc2ccc(-c3ccccc3)cc2)C1 (relative stereo) [Compound D316]            %      20
1  Cl.Cl.NCC(=O)N[C@H]1CN[C@H](C(=O)N2CCN(c3ccc(Cl)cc3)CC2)C1 (relative stereo) [Compound D403]            %      22
2  Cl.Cl.Cl.NCC(=O)N[C@H]1CN[C@H](C(=O)Nc2nc(-c3ccccc3)cs2)C1 (relative stereo) [Compound D326]            %      19

Q) Any idea what its Inhibition (%) of growth of P. aeruginosa PAM1001 is? The molecule is Cl.Cl.Cl.NCC(=O)NC1CNC(C(=O)Nc2cccc(NC(=O)CCc3ccccc3)n2)C1 (stereo not shown) [Compound D702]
A) 15

---

# System: Pseudomonas aeruginosa PAM1001
# measurementProtocol: microbe, parasite or virus in culture
# Format: cell-based
# assayConditions: Pseudomonas aeruginosa, PAM1001, read-out: Inhibition (%) of growth of P. aeruginosa PAM1001
Structures can show the parent of a compound that is named as a salt.
propertyName: inhibition at 20 µg/mL (%)
Give bare numbers, in %.

compound	resultUnits	inhibition at 20 µg/mL
NCCC[C@@H](N)C(=O)N1C[C@H](NC(=O)CCCc2ccccc2)C[C@H]1C(=O)Nc1ccc2c(c1)CCC2	%	100

For every listed record, write down its inhibition at 20 µg/mL.
1. NCC(=O)N[C@H]1CN[C@H](C(=O)N[C@H](CCc2ccccc2)C(=O)Nc2cnc3ccccc3c2)C1 [Compound D201, Trihydrochloride]
2. NCC(=O)N[C@H]1CN[C@H](C(=O)Nc2ccc(Oc3ccc(Cl)cc3)cc2)C1 [Compound D303, Dihydrochloride]
3. NCC(=O)N[C@H]1CCN[C@H](C(=O)N2C[C@H](NC(=O)[C@H](O)CCc3ccccc3)C[C@H]2C(=O)Nc2cnc3ccccc3c2)C1 (mixture of isomers) [Compound D114, Trihydrochloride]

A)
1: 100; 2: 100; 3: 100

For every listed record, write down its inhibition at 20 µg/mL.
1. Cc1c(Cl)cccc1N1CCN(C(=O)[C@H]2C[C@H](NC(=O)[C@@H](O)CN)CN2)CC1 [Compound D402, Dihydrochloride]
2. NCC(O)[C@@H]1C[C@@H](Oc2cccc(-c3ccccc3)c2)CN1 (some centres unmarked) [Compound D602, Dihydrochloride]
3. NCC(O)C[C@H](N)C(=O)N1C[C@H](NC(=O)CCCc2ccccc2)C[C@H]1C(=O)Nc1ccc2c(c1)CCC2 (some centres unmarked) [Compound D125, Dihydrochloride]
4. N[C@H]1CCN[C@H](C(=O)N2C[C@H](NC(=O)[C@H](O)CCc3ccccc3)C[C@H]2C(=O)Nc2cnc3ccccc3c2)C1 (mixture of isomers) [Compound D112, Trihydrochloride]

A)
[100, 100, 100, 58]

For every listed record, write down its inhibition at 20 µg/mL.
1. NCC(=O)N[C@H]1CN[C@H](C(=O)Nc2cccc(OCc3ccccc3)c2)C1 [Compound D318, Dihydrochloride]
2. CNCC(=O)N1C[C@H](N)C[C@H]1C(=O)N1C[C@H](NC(=O)[C@H](O)CCc2ccccc2)C[C@H]1C(=O)Nc1cnc2ccccc2c1 (mixture of isomers) [Compound D111, Trihydrochloride]
3. NCC(=O)N[C@H]1CN[C@H](C(=O)Nc2ccc(CSc3ccccc3)cc2)C1 [Compound D319, Dihydrochloride]
4. Cc1ccc(NC(=O)[C@@H](CCc2ccccc2)NC(=O)[C@@H]2C[C@@H](NC(=O)CN)CN2)cc1C [Compound D204, Dihydrochloride]
5. Cc1ccc(Oc2ccc(NC(=O)[C@@H]3C[C@@H](NC(=O)CN)CN3)cc2)cc1 [Compound D302, Dihydrochloride]
6. NCC(=O)N[C@@H]1CN[C@@H](COc2cccc(-c3ccccc3)c2)C1 [Compound D504, Dihydrochloride]

A)
1. 99
2. 27
3. 100
4. 100
5. 100
6. 100
